Assay: Toxicokinetics of APi2568 in monkey plasma (UHPLC-MS/MS)
Format: in vivo, cynomolgus monkey
Conditions: female, cynomolgus monkey, plasma, im, 2 mg/dose, female, 2 mg/dose IM as PD1-Vaxx, day 43; mean; one female had significantly lower exposure; read-out: AUC(0-t)
Where no end group is shown, it is not given here.
Measured Metric: AUC(0-t) (µg·h/mL)
Only the number, expressed in µg·h/mL, is required.

Request: Reported AUC(0-t), sequence KLLSLIKGVIVHRLEGVEGPSLGAISLAPKAQIKESLRAEL [MVF-PD-1(92-110)] : ____
Result: 0.0945

* * *

Test: Toxicokinetics of APi2568 in monkey plasma (UHPLC-MS/MS)
Format: in vivo, cynomolgus monkey
Conditions: male, cynomolgus monkey, plasma, im, 2 mg/dose, male, 2 mg/dose IM as PD1-Vaxx, day 43; mean; read-out: AUC(0-t)
Description: The non-human primate studies were carried out by the Charles River Laboratories (Ashland, OH USA). All the cynomolgus monkeys (Macaca fascicularis of Chinese origin) were obtained from Charles River Laboratories (Houston, TX, USA). In brief, the animals were approximately 2–4 years old and at the body weight between 2.2 and 3.1 kg at the initial dosing. […] All the animals’ body weights were monitored weekly after receiving. […]
Where no end group is shown, it is not given here.
Measured Metric: AUC(0-t) (ng·h/mL)
Only the number, expressed in ng·h/mL, is required.

Request: Reported AUC(0-t), sequence KLLSLIKGVIVHRLEGVEGPSLGAISLAPKAQIKESLRAEL [MVF-PD-1(92-110)] : ____
Result: 494

* * *

Test: Toxicokinetics of APi2568 in monkey plasma (UHPLC-MS/MS)
Assay type: in vivo, cynomolgus monkey
Conditions: male, cynomolgus monkey, plasma, im, 5 mg/dose, male, 5 mg/dose IM as PD1-Vaxx, day 1; plasma, UHPLC-MS/MS; mean as printed
Experimental: The non-human primate studies were carried out by the Charles River Laboratories (Ashland, OH USA). All the cynomolgus monkeys (Macaca fascicularis of Chinese origin) were obtained from Charles River Laboratories (Houston, TX, USA). In brief, the animals were approximately 2–4 years old and at the body weight between 2.2 and 3.1 kg at the initial dosing. […] All the animals’ body weights were monitored weekly after receiving. […]
Where no end group is shown, it is not given here.
Measured Metric: Cmax (ng/mL)
Only the number, expressed in ng/mL, is required.

Request: Reported Cmax, sequence KLLSLIKGVIVHRLEGVEGPSLGAISLAPKAQIKESLRAEL [MVF-PD-1(92-110)] : ____
Result: 10.1

* * *

Experiment: Toxicokinetics of APi2568 in monkey plasma (UHPLC-MS/MS)
Assay type: in vivo, cynomolgus monkey
Conditions: male, cynomolgus monkey, plasma, im, 0.5 mg/dose, male, 0.5 mg/dose IM as PD1-Vaxx, day 43; mean; read-out: AUC(0-t)
Where no end group is shown, it is not given here.
Measured Metric: AUC(0-t) (ng·h/mL)
Only the number, expressed in ng·h/mL, is required.

Request: Reported AUC(0-t), sequence KLLSLIKGVIVHRLEGVEGPSLGAISLAPKAQIKESLRAEL [MVF-PD-1(92-110)] : ____
Result: 62.3

* * *

Assay: Toxicokinetics of APi2568 in monkey plasma (UHPLC-MS/MS)
Assay type: in vivo, cynomolgus monkey
Conditions: male, cynomolgus monkey, plasma, im, 5 mg/dose
Where no end group is shown, it is not given here.
Measured Metric: half-life (h)
Only the number, expressed in h, is required.

Request: Reported half-life, sequence KLLSLIKGVIVHRLEGVEGPSLGAISLAPKAQIKESLRAEL [MVF-PD-1(92-110)] : ____
Result: 12.7

* * *

Assay: Toxicokinetics of APi2568 in monkey plasma (UHPLC-MS/MS)
Assay type: in vivo, cynomolgus monkey
Settings: male, cynomolgus monkey, plasma, im, 5 mg/dose, male, 5 mg/dose IM as PD1-Vaxx, day 43; plasma, UHPLC-MS/MS; mean (generally n = 3)
Method: The non-human primate studies were carried out by the Charles River Laboratories (Ashland, OH USA). All the cynomolgus monkeys (Macaca fascicularis of Chinese origin) were obtained from Charles River Laboratories (Houston, TX, USA). In brief, the animals were approximately 2–4 years old and at the body weight between 2.2 and 3.1 kg at the initial dosing. […] All the animals’ body weights were monitored weekly after receiving. […]
Where no end group is shown, it is not given here.
Measured Metric: Cmax (ng/mL)
Only the number, expressed in ng/mL, is required.

Request: Reported Cmax, sequence KLLSLIKGVIVHRLEGVEGPSLGAISLAPKAQIKESLRAEL [MVF-PD-1(92-110)] : ____
Result: 202

* * *

Experiment: Toxicokinetics of APi2568 in monkey plasma (UHPLC-MS/MS)
Type: in vivo, cynomolgus monkey
Conditions: male, cynomolgus monkey, plasma, im, 5 mg/dose, male, 5 mg/dose IM as PD1-Vaxx, day 1; AUC calculable in 1 monkey/sex; read-out: AUC(0-t)
Where no end group is shown, it is not given here.
Measured Metric: AUC(0-t) (ng·h/mL)
Only the number, expressed in ng·h/mL, is required.

Request: Reported AUC(0-t), sequence KLLSLIKGVIVHRLEGVEGPSLGAISLAPKAQIKESLRAEL [MVF-PD-1(92-110)] : ____
Result: 151

* * *

Assay: Toxicokinetics of APi2568 in monkey plasma (UHPLC-MS/MS)
Assay type: in vivo, cynomolgus monkey
Conditions: male, cynomolgus monkey, plasma, im, 2 mg/dose
Where no end group is shown, it is not given here.
Measured Metric: half-life (h)
Only the number, expressed in h, is required.

Request: Reported half-life, sequence KLLSLIKGVIVHRLEGVEGPSLGAISLAPKAQIKESLRAEL [MVF-PD-1(92-110)] : ____
Result: 13.1

* * *

Assay: Toxicokinetics of APi2568 in monkey plasma (UHPLC-MS/MS)
Type: in vivo, cynomolgus monkey
Conditions: female, cynomolgus monkey, plasma, im, 5 mg/dose, female, 5 mg/dose IM as PD1-Vaxx, day 1; plasma, UHPLC-MS/MS; mean as printed
Protocol: The non-human primate studies were carried out by the Charles River Laboratories (Ashland, OH USA). All the cynomolgus monkeys (Macaca fascicularis of Chinese origin) were obtained from Charles River Laboratories (Houston, TX, USA). In brief, the animals were approximately 2–4 years old and at the body weight between 2.2 and 3.1 kg at the initial dosing. […] All the animals’ body weights were monitored weekly after receiving. […]
Where no end group is shown, it is not given here.
Measured Metric: Cmax (ng/mL)
Only the number, expressed in ng/mL, is required.

Request: Reported Cmax, sequence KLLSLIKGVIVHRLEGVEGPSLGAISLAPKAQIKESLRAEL [MVF-PD-1(92-110)] : ____
Result: 4.77

* * *

Assay: Toxicokinetics of APi2568 in monkey plasma (UHPLC-MS/MS)
Assay type: in vivo, cynomolgus monkey
Settings: male, cynomolgus monkey, plasma, im, 2 mg/dose; read-out: Tmax
Where no end group is shown, it is not given here.
Measured Metric: Tmax (h)
Only the number, expressed in h, is required.

Request: Reported Tmax, sequence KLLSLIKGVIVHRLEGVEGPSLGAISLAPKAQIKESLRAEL [MVF-PD-1(92-110)] : ____
Result: 1

* * *

Test: Toxicokinetics of APi2568 in monkey plasma (UHPLC-MS/MS)
Assay type: in vivo, cynomolgus monkey
Conditions: female, cynomolgus monkey, plasma, im, 2 mg/dose; read-out: Tmax
Where no end group is shown, it is not given here.
Measured Metric: Tmax (h)
Only the number, expressed in h, is required.

Request: Reported Tmax, sequence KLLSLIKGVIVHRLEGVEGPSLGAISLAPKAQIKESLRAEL [MVF-PD-1(92-110)] : ____
Result: 4

* * *

Assay: Toxicokinetics of APi2568 in monkey plasma (UHPLC-MS/MS)
Type: in vivo, cynomolgus monkey
Conditions: female, cynomolgus monkey, plasma, im, 5 mg/dose, female, 5 mg/dose IM as PD1-Vaxx, day 43; plasma, UHPLC-MS/MS; mean (generally n = 3)
Where no end group is shown, it is not given here.
Measured Metric: Cmax (ng/mL)
Only the number, expressed in ng/mL, is required.

Request: Reported Cmax, sequence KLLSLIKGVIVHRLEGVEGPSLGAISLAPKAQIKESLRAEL [MVF-PD-1(92-110)] : ____
Result: 160
